- ASSAY: Volume of distribution at steady state in Sprague-Dawley rat at 1 mg/kg, iv
- Type: ADME, organism-based
- Parameters: dose 1 mg/kg, route intravenous
- STUDY CONDITIONS: in vivo, read-out: Vdss
QUANTITY NAME: Vd

SMILES RECORD | RESULT
CCc1cc2c(cc1N1CCC(N3CCOCC3)CC1)C(C)(C)c1[nH]c3cc(C#N)ccc3c1C2=O | 9.33 L/kg

* * *

Quick note: these are IC50 numbers for system: Vascular endothelial growth factor receptor 2 (Homo sapiens, UniProt P35968)
Sequence (P35968 whole entry): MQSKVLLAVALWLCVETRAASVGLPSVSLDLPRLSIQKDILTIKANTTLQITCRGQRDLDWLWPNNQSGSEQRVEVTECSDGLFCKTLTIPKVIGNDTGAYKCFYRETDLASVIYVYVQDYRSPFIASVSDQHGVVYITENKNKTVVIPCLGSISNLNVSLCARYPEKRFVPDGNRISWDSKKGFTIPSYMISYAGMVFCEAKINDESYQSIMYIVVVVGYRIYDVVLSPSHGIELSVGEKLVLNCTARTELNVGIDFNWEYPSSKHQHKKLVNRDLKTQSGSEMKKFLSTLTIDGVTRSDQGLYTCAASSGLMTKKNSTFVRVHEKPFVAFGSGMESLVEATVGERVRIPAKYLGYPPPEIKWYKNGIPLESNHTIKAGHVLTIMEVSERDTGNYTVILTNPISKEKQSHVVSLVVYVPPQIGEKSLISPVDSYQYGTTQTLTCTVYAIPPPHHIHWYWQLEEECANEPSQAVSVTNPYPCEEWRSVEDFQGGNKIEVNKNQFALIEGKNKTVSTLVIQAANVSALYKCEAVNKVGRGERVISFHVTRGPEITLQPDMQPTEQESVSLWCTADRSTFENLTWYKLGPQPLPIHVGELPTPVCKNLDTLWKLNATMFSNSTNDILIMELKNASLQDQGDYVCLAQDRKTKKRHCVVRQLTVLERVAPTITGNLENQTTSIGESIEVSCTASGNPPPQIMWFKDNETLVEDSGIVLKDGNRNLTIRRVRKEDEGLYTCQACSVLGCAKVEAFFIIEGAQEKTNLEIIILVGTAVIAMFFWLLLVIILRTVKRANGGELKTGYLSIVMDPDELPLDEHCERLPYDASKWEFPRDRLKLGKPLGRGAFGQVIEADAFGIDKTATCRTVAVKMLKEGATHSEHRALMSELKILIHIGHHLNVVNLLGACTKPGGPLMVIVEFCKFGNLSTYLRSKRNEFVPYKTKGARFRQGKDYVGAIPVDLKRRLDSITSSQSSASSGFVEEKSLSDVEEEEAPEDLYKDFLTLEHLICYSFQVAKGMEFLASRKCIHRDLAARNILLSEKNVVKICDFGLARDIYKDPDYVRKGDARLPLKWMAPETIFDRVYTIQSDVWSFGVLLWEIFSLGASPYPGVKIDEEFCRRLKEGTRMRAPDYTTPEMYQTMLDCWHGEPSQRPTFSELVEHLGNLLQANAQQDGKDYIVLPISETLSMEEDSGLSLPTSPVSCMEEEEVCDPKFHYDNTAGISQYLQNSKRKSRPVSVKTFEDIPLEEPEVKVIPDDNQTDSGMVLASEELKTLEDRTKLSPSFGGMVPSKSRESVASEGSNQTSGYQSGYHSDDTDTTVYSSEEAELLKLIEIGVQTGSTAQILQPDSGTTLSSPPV

SMILES RECORD | IC50
CC1(C)c2ccc(N3CCN(C4CC4)CC3)cc2C(=O)c2c1[nH]c1cc(C#N)ccc21 | > 5 µM
CCCc1cc2c(cc1N1CCC(N3CCOCC3)CC1)C(C)(C)c1[nH]c3cc(C#N)ccc3c1C2=O | > 5 µM

* * *

- ASSAY: Cmax in cynomolgus monkey at 0.5 mg/kg, po
- Type: ADME, organism-based, Macaca fascicularis
- Set-up: dose 0.5 mg/kg, route oral
- STUDY CONDITIONS: in vivo

MOLECULE | Cmax (ng/mL)
CCc1cc2c(cc1N1CCC(N3CCOCC3)CC1)C(C)(C)c1[nH]c3cc(C#N)ccc3c1C2=O [ALECTINIB] | 55.8

* * *

- ASSAY: Half life in Sprague-Dawley rat at 1 mg/kg, po
- Type: ADME, organism-based
- Design: dose 1 mg/kg, route oral
- STUDY CONDITIONS: in vivo

SMILES RECORD | half-life [h]
CCc1cc2c(cc1N1CCC(N3CCOCC3)CC1)C(C)(C)c1[nH]c3cc(C#N)ccc3c1C2=O | 12.6

* * *

- ASSAY: Oral bioavailability in cynomolgus monkey at 0.5 mg/kg
- Assay type: ADME, organism-based, Macaca fascicularis
- STUDY CONDITIONS: in vivo

MOLECULE | bioavailability / %
CCc1cc2c(cc1N1CCC(N3CCOCC3)CC1)C(C)(C)c1[nH]c3cc(C#N)ccc3c1C2=O [ALECTINIB] | 50.4

* * *

Consider the following molecules and their measured microsomal CLint readings.
- ASSAY: Clearance in human liver microsomes assessed as per mg of protein after 30 mins by LC/MS analysis
- Assay type: ADME, Microsome
- STUDY CONDITIONS: read-out: CLH
QUANTITY NAME: microsomal CLint (µL/min/mg)

SMILES RECORD | UNITS TEXT | QUANTITATIVE RESULT
CC1(C)c2cc(N3CCC(N4CCOCC4)CC3)ccc2C(=O)c2c1[nH]c1cc(C#N)ccc21 | µL/min/mg | 106
Cc1cc2c(cc1N1CCC(N3CCOCC3)CC1)C(C)(C)c1[nH]c3cc(C#N)ccc3c1C2=O | µL/min/mg | 23
CCc1cc2c(cc1N1CCN(C3CCC3)CC1)C(C)(C)c1[nH]c3cc(C#N)ccc3c1C2=O | µL/min/mg | 15.6
CCc1cc2c(cc1N1CCC(N3CCOCC3)CC1)C(C)(C)c1[nH]c3cc(C#N)ccc3c1C2=O | µL/min/mg | 17.7
CC1(C)c2ccc(N3CCN(C4COC4)CC3)cc2C(=O)c2c1[nH]c1cc(C#N)ccc21 | µL/min/mg | 14.2
CC1(C)c2ccc(C3CCN(C4CC4)CC3)cc2C(=O)c2c1[nH]c1cc(C#N)ccc21 | µL/min/mg | 59.1
CC1(C)c2ccc(N3CCN(C4CC4)CC3)cc2C(=O)c2c1[nH]c1cc(C#N)ccc21 | µL/min/mg | 16.4
CCCc1cc2c(cc1N1CCC(N3CCOCC3)CC1)C(C)(C)c1[nH]c3cc(C#N)ccc3c1C2=O | µL/min/mg | 17.1
CCc1cc2c(cc1N1CCN(C3CC3)CC1)C(C)(C)c1[nH]c3cc(C#N)ccc3c1C2=O | µL/min/mg | 22.1
CC1(C)c2ccc(C3CCN(C4COC4)CC3)cc2C(=O)c2c1[nH]c1cc(C#N)ccc21 | µL/min/mg | 38.6

* * *

- ASSAY: in vivo
- STUDY CONDITIONS: cynomolgus monkey, po, 0.5 mg/kg
- Description: Half life in cynomolgus monkey at 0.5 mg/kg, po

SMILES RECORD | UNITS TEXT | half-life
CCc1cc2c(cc1N1CCC(N3CCOCC3)CC1)C(C)(C)c1[nH]c3cc(C#N)ccc3c1C2=O | h | 8.38

* * *

pIC50: −log10 of the molar value.
Quick note: these are pIC50 numbers for system: Mast/stem cell growth factor receptor Kit (Homo sapiens, UniProt P10721)
Sequence (P10721 whole entry): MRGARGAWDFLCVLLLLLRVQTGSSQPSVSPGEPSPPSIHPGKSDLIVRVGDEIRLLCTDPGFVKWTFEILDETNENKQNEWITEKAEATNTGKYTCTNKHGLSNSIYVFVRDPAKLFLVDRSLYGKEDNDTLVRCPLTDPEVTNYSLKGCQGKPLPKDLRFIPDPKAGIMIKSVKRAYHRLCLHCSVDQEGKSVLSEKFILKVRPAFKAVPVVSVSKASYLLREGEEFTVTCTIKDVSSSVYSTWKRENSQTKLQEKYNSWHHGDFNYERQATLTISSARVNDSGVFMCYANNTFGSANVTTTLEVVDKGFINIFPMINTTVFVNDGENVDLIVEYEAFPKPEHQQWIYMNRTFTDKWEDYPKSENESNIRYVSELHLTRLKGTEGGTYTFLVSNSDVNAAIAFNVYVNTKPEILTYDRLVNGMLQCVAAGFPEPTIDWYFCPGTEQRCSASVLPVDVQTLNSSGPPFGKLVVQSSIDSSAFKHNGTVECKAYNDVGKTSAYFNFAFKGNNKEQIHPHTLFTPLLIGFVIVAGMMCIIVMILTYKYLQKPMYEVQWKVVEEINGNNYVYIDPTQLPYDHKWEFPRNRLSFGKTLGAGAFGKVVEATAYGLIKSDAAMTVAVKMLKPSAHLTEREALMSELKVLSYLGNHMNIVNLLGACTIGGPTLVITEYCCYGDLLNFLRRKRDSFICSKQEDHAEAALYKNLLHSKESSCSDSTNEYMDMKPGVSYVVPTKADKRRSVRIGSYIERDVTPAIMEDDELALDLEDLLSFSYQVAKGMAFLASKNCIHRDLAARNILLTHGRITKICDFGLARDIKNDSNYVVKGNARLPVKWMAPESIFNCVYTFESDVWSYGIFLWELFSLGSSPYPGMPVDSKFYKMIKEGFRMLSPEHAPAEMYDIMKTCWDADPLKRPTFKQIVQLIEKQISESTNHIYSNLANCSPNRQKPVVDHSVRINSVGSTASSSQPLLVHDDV

SMILES RECORD | TARGET UNDER TEST | pIC50
CCCc1cc2c(cc1N1CCC(N3CCOCC3)CC1)C(C)(C)c1[nH]c3cc(C#N)ccc3c1C2=O | Mast/stem cell growth factor receptor Kit (Homo sapiens, UniProt P10721) | < 5.30
CCc1cc2c(cc1N1CCN(C3COC3)CC1)C(C)(C)c1[nH]c3cc(C#N)ccc3c1C2=O | Mast/stem cell growth factor receptor Kit (Homo sapiens, UniProt P10721) | < 5.30
CCc1cc2c(cc1N1CCN(C3CC3)CC1)C(C)(C)c1[nH]c3cc(C#N)ccc3c1C2=O | Mast/stem cell growth factor receptor Kit (Homo sapiens, UniProt P10721) | < 5.30
CC1(C)c2ccc(N3CCN(C4CC4)CC3)cc2C(=O)c2c1[nH]c1cc(C#N)ccc21 | Mast/stem cell growth factor receptor Kit (Homo sapiens, UniProt P10721) | < 5.30
Cc1cc2c(cc1N1CCC(N3CCOCC3)CC1)C(C)(C)c1[nH]c3cc(C#N)ccc3c1C2=O | Mast/stem cell growth factor receptor Kit (Homo sapiens, UniProt P10721) | 5.98

* * *

- ASSAY: Total clearance in Sprague-Dawley rat at 1 mg/kg, iv
- Type: ADME, organism-based
- Parameters: dose 1 mg/kg, route intravenous
- STUDY CONDITIONS: in vivo
QUANTITY NAME: clearance (mL/min/kg)

SMILES RECORD | QUANTITY NAME | UNITS TEXT | QUANTITATIVE RESULT
CCc1cc2c(cc1N1CCC(N3CCOCC3)CC1)C(C)(C)c1[nH]c3cc(C#N)ccc3c1C2=O | clearance | mL/min/kg | 7.79

* * *

- ASSAY: Volume of distribution at steady state in cynomolgus monkey at 0.5 mg/kg, iv
- Type: ADME, organism-based, Macaca fascicularis
- Set-up: dose 0.5 mg/kg, route intravenous
- STUDY CONDITIONS: in vivo, read-out: Vdss
QUANTITY NAME: Vd (L/kg)

SMILES RECORD | QUANTITATIVE RESULT
CCc1cc2c(cc1N1CCC(N3CCOCC3)CC1)C(C)(C)c1[nH]c3cc(C#N)ccc3c1C2=O | 5.28

* * *

- ASSAY: Clearance in mouse liver microsomes assessed as per mg of protein after 30 mins by LC/MS analysis
- Type: ADME, Microsome
- STUDY CONDITIONS: read-out: CLH
Consider the following compounds and their measured microsomal CLint readings.

COMPOUND | microsomal CLint, µL/min/mg
CC1(C)c2ccc(N3CCN(C4CC4)CC3)cc2C(=O)c2c1[nH]c1cc(C#N)ccc21 | 24.9
CC1(C)c2ccc(N3CCN(C4COC4)CC3)cc2C(=O)c2c1[nH]c1cc(C#N)ccc21 | 20.6
CC1(C)c2ccc(C3CCN(C4COC4)CC3)cc2C(=O)c2c1[nH]c1cc(C#N)ccc21 | 38.6
CCc1cc2c(cc1N1CCC(N3CCOCC3)CC1)C(C)(C)c1[nH]c3cc(C#N)ccc3c1C2=O [ALECTINIB] | 8.7
CCc1cc2c(cc1N1CCN(C3CCC3)CC1)C(C)(C)c1[nH]c3cc(C#N)ccc3c1C2=O | 4.4
Cc1cc2c(cc1N1CCC(N3CCOCC3)CC1)C(C)(C)c1[nH]c3cc(C#N)ccc3c1C2=O | 15.8
CCc1cc2c(cc1N1CCN(C3CC3)CC1)C(C)(C)c1[nH]c3cc(C#N)ccc3c1C2=O | 3.3
CCCc1cc2c(cc1N1CCC(N3CCOCC3)CC1)C(C)(C)c1[nH]c3cc(C#N)ccc3c1C2=O | 58.5
CC1(C)c2cc(N3CCC(N4CCOCC4)CC3)ccc2C(=O)c2c1[nH]c1cc(C#N)ccc21 | 72
CC1(C)c2ccc(C3CCN(C4CC4)CC3)cc2C(=O)c2c1[nH]c1cc(C#N)ccc21 | 20

* * *

- ASSAY: Half life in Sprague-Dawley rat at 1 mg/kg, iv
- Type: ADME, organism-based
- Design: dose 1 mg/kg, route intravenous
- STUDY CONDITIONS: in vivo

SMILES RECORD | UNITS TEXT | half-life
CCc1cc2c(cc1N1CCC(N3CCOCC3)CC1)C(C)(C)c1[nH]c3cc(C#N)ccc3c1C2=O | h | 17.8
